Origin of measurements: patent US8318746B2

Where a name gives a salt, the structure may show the parent alone.
propertyLabel: melting point

[in] Return melting point for the following compound: CC(=O)N1CCN(Cc2cnc(-c3ccc(C(CC4CCOCC4)c4ccc(S(=O)(=O)C5CC5)cc4)[nH]3)s2)CC1.Cl (centres unmarked)
[out] 156 to 158 °C

[in] Return melting point for the following compound: NC(=O)c1cc(-c2nccs2)[nH]c1C(CC1CCOCC1)c1ccc(S(=O)(=O)C2CC2)cc1 (centres unmarked) [Example 106]
[out] 241 to 243 °C

[in] Return melting point for the following compound: O=Cc1cnc(-c2ccc(C(CC3CCOCC3)c3ccc(S(=O)(=O)C4CC4)cc3)[nH]2)s1 (centres unmarked) [Example 158]
[out] 175 to 176 °C

[in] Return melting point for the following compound: O=S(=O)(c1ccc(C(CC2CCOCC2)c2ccc(-c3ccc(Cn4cncn4)cn3)[nH]2)cc1)C1CC1 (centres unmarked) [Example 237]
[out] 152 to 153 °C

[in] Return melting point for the following compound: CC(O)COc1ccc(-c2ccc(C(CC3CCOCC3)c3ccc(S(=O)(=O)C4CC4)cc3)[nH]2)nc1 (centres unmarked) [Example 117]
[out] 116 to 118 °C

[in] Return melting point for the following compound: CC(C)(O)c1ccc(-c2ccc(C(CC3CCOCC3)c3ccc(S(=O)(=O)C4CC4)cc3)[nH]2)nc1 (centres unmarked) [Example 125]
[out] 112 to 114 °C

[in] Return melting point for the following compound: O=C(c1ccc(-c2ccc(C(CC3CCOCC3)c3ccc(S(=O)(=O)C4CC4)cc3)[nH]2)nc1)N1CCC1 (centres unmarked) [Example 120]
[out] 109 to 110 °C

[in] Return melting point for the following compound: COC(=O)c1ccc(-c2ccc(C(CC3CCOCC3)c3ccc(S(=O)(=O)C4CC4)cc3)[nH]2)nc1 (centres unmarked) [Example 118]
[out] 150 to 152 °C

[in] Return melting point for the following compound: O=C1CN(Cc2cnc(-c3ccc(C(CC4CCOCC4)c4ccc(S(=O)(=O)C5CC5)cc4)[nH]3)s2)C(=O)N1 (centres unmarked) [Example 147]
[out] 184 to 185 °C

[in] Return melting point for the following compound: CCS(=O)(=O)CCNCc1cnc(-c2ccc(C(CC3CCOCC3)c3ccc(S(=O)(=O)C4CC4)cc3)[nH]2)s1.Cl (centres unmarked) [Example 160]
[out] 127 to 129 °C

[in] Return melting point for the following compound: O=C(c1ccc(-c2ccc(C(CC3CCOCC3)c3ccc(S(=O)(=O)C4CC4)cc3)[nH]2)nc1)N1CCOCC1 (centres unmarked) [Example 121]
[out] 114 to 116 °C

[in] Return melting point for the following compound: CC(c1cnc(-c2ccc(C(CC3CCOCC3)c3ccc(S(=O)(=O)C4CC4)cc3)[nH]2)s1)N(C)C (centres unmarked) (as salt: hydrochloride) [Example 157, dihydrochloride]
[out] 147 to 148 °C

[in] Return melting point for the following compound: CS(=O)(=O)c1ccc(C(CC2CCOCC2)c2ccc(-c3nnc(CO)s3)[nH]2)cc1 (centres unmarked) [Example 221]
[out] 199 to 201 °C

[in] Return melting point for the following compound: CS(=O)(=O)c1ccc(C(CC2CCOCC2)c2ccc(-c3ccccn3)[nH]2)cn1 (centres unmarked) [Example 137]
[out] 89 to 90 °C
